Below, each entry is listed with its recorded viability, T/C.
test system: 188146-221-R-J1-PDC complex spheroid viability; test: Anticancer human tumor 188146-221-R-J1-PDC patient-derived colon adenocarcinoma cell line growth inhibition [POLQ]; settings: second compound 0.1 µM; first compound 0.1 µM; hits give low values;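 also: spheroids exposed to compounds for seven days; 100% = DMSO vehicle control viability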

compound	testedSystem	viability, T/C [%]
C=CC(=O)N1CCN(c2nc(=O)n(-c3c(C)ccnc3C(C)C)c3nc(-c4c(O)cccc4F)c(F)cc23)C(C)C1 (stereo not given) + COC1C(OC(N)=O)C(O)C(Oc2ccc3c(O)c(NC(=O)c4ccc(O)c(CC=C(C)C)c4)c(=O)oc3c2C)OC1(C)C	188146-221-R-J1-PDC complex spheroid viability	107
O=C(c1cc(Cc2n[nH]c(=O)c3ccccc23)ccc1F)N1CCN(C(=O)C2CC2)CC1 + Nc1ccc(C#CCN(C(=O)Cc2ncc(C(F)(F)F)cc2C(F)(F)F)c2ccc(F)cc2)nn1	188146-221-R-J1-PDC complex spheroid viability	100
Nc1ccn(C2OC(CO)C(O)C2(F)F)c(=O)n1 (stereo not given) + Nc1ccc(C#CCN(C(=O)Cc2ncc(C(F)(F)F)cc2C(F)(F)F)c2ccc(F)cc2)nn1	188146-221-R-J1-PDC complex spheroid viability	18
C#Cc1c(F)ccc2cc(O)cc(-c3ncc4c(N5CC6CCC(C5)N6)nc(OCC56CCCN5CC(F)C6)nc4c3F)c12 (stereo not given) + COC1C(OC(N)=O)C(O)C(Oc2ccc3c(O)c(NC(=O)c4ccc(O)c(CC=C(C)C)c4)c(=O)oc3c2C)OC1(C)C	188146-221-R-J1-PDC complex spheroid viability	94
Nc1ccn(C2OC(CO)C(O)C2(F)F)c(=O)n1 (stereo not given) + Cc1cccc(N(C)C(=O)C2C(O)CCN2c2nc(C)cc(C(F)(F)F)c2C#N)c1	188146-221-R-J1-PDC complex spheroid viability	23.8
